I'd be grateful if you could share measured EC50 for these entries.
- study_target: human GLP1R (Homo sapiens)
- assay_name: Luciferase reporter assay, HEK293/CRE-Luc/hGLP1R (Example 17)
- Assay type: cell-based
- Parameters: engineered to express full-length human GLP1R, cynomolgus GLP1R; expressed in transfected cells; host or cells: HEK293/CRE-Luc
- conditions_used: HEK293/CRE-Luc/hGLP1R; payloads and linker-payloads; experiments A-E, M2361 repeated in each; read-out: EC50
- From the text: To test the activity of GLP1R agonist payloads, GLP1R agonist linker-payloads (LPs), and anti-GLP1R antibody tethered drug conjugates (ATDCs) of the invention, a cell-based cAMP responsive luciferase reporter assay was developed. To generate the assay cell line, the firefly luciferase gene was placed under the control of a cAMP response element (CRE) located upstream of a minimal promoter and transfected into HEK293 cells and referred to herein as HEK293/CRE-Luc cells. […]
Give bare numbers, in nM.

CCc1cc(OC)ccc1-c1ccc(C[C@H](NC(=O)[C@H](CC(=O)O)NC(=O)[C@H](CO)NC(=O)C(NC(=O)[C@](C)(Cc2ccccc2F)NC(=O)[C@@H](NC(=O)CNC(=O)[C@H](Cc2nn[nH]n2)NC(=O)C(C)(C)C(=O)NCCc2cnc[nH]2)[C@@H](C)O)[C@@H](C)O)C(=O)N[C@@H](CCCc2ccc(OCCCCN)cc2)C(N)=O)cc1 (stereo in doubt) [P24]
0.0316

Which EC50 reading was recorded for the compound CCc1cc(OCCCCN)ccc1-c1ccc(C[C@H](NC(=O)[C@H](CC(=O)O)NC(=O)[C@H](CO)NC(=O)[C@@H](NC(=O)[C@](C)(Cc2ccccc2F)NC(=O)[C@@H](NC(=O)CNC(=O)[C@@H](N)Cc2nn[nH]n2)[C@@H](C)O)[C@@H](C)O)C(=O)N[C@@H](CCCc2cc(C)cc(C)c2)C(N)=O)cc1 [P2] ?
19

###

- study_target: human GLP1R (Homo sapiens, UniProt P43220)
- Sequence (P43220 24-463): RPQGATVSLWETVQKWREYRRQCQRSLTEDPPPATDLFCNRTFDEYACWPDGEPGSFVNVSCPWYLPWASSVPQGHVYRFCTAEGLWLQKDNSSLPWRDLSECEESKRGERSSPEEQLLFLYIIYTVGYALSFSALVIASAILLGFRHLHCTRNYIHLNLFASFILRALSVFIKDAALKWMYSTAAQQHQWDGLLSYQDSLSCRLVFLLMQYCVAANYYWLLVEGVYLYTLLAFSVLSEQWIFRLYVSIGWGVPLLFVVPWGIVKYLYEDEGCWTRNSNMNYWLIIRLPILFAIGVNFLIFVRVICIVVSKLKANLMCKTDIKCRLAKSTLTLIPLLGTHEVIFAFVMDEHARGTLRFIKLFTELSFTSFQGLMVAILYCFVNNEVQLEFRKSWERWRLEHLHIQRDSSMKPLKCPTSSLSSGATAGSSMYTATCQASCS
- assay_name: Luciferase reporter assay, HEK293/CRE-Luc/hGLP1R (Example 17)
- Type: cell-based
- Set-up: engineered to express full-length human GLP1R, cynomolgus GLP1R; expressed in transfected cells; host or cells: HEK293/CRE-Luc
- conditions_used: HEK293/CRE-Luc/hGLP1R; payloads and linker-payloads; experiments A-E, M2361 repeated in each; read-out: EC50
Where a SMILES comes first, the peptide text is derived from it. [ ]: non-standard residue; d: D form. The star is where a group is joined. Bip(2'-Et,4'-O(CH2)4NH2) = CCc1cc(OCCCCN)ccc1-c1ccc(C[C@H](N)C(=O)O)cc1; Malonyl(2,2-Me2,histaminyl) = CC(C)(C(=O)NCCc1cnc[nH]1)C(=O)*; Nva(5-(3,5-Me2Ph)) = Cc1cc(C)cc(CCC[C@H](N)C(=O)O)c1; Ala(1H-tetrazol-5-yl) = N[C@@H](Cc1nnn[nH]1)C(=O)O; αMePhe(2-F) = C[C@](N)(Cc1ccccc1F)C(=O)O
I'd be grateful if you could share measured EC50 for these entries.
Give bare numbers, in pM.

CCc1cc(OCCCCN)ccc1-c1ccc(C[C@H](NC(=O)[C@H](CC(=O)O)NC(=O)[C@H](CO)NC(=O)[C@@H](NC(=O)[C@](C)(Cc2ccccc2F)NC(=O)[C@@H](NC(=O)CNC(=O)[C@H](Cc2nn[nH]n2)NC(=O)C(C)(C)C(=O)NCCc2cnc[nH]2)[C@@H](C)O)[C@@H](C)O)C(=O)N[C@@H](CCCc2cc(C)cc(C)c2)C(N)=O)cc1 [P9] ({Malonyl(2,2-Me2,histaminyl)}-[Ala(1H-tetrazol-5-yl)]GT[αMePhe(2-F)]TSD[Bip(2'-Et,4'-O(CH2)4NH2)][Nva(5-(3,5-Me2Ph))]-NH2)
3.97
CCc1cc(OCCCCN)ccc1-c1ccc(C[C@H](NC(=O)[C@H](CC(=O)O)NC(=O)[C@H](CO)NC(=O)[C@@H](NC(=O)[C@](C)(Cc2ccccc2F)NC(=O)[C@@H](NC(=O)CNC(=O)[C@H](Cc2nn[nH]n2)NC(=O)[C@H](C)NC(=O)[C@H](Cc2c[nH]cn2)NC(=O)[C@@H](N)CCC(N)=O)[C@@H](C)O)[C@@H](C)O)C(=O)N[C@@H](CCCc2cc(C)cc(C)c2)C(N)=O)cc1 [P13] (H-QHA[Ala(1H-tetrazol-5-yl)]GT[αMePhe(2-F)]TSD[Bip(2'-Et,4'-O(CH2)4NH2)][Nva(5-(3,5-Me2Ph))]-NH2)
357

// below: EC50 requested for another compound
Which EC50 reading was recorded for the compound CCc1cc(OCCCCn2cc(COCCOCCOCCOCCNC(=O)COC3C#CCCCCC3)nn2)ccc1-c1ccc(C[C@H](NC(=O)[C@H](CC(=O)O)NC(=O)[C@H](CO)NC(=O)[C@@H](NC(=O)[C@](C)(Cc2ccccc2F)NC(=O)[C@@H](NC(=O)CNC(=O)[C@H](Cc2nn[nH]n2)NC(=O)C(C)(C)C(=O)NCCc2cnc[nH]2)[C@@H](C)O)[C@@H](C)O)C(=O)N[C@@H](CCCc2cc(C)cc(C)c2)C(N)=O)cc1 (stereo partly drawn) [LP10, COT-PEG4-triazole-P8] ?
39.1
